# Test system: cholesterol biosynthesis in HEP G2 cells
# run_description: inhibition of cholesterol biosynthesis in HEP G2 cell cultures by incorporation of 14C-precursor (14C-acetate) in cholesterol
# Assay type: cell-based
# conditions: Homo sapiens, HepG2, 1 hour preincubation, 3 hours with 14C-acetate
pIC50: −log10 of the molar value.
Here the recorded pIC50 is given for each entry.
readout_name: pIC50

1) CC(C)c1nc(-c2ccccc2)nc(-c2ccc(F)cc2)c1/C=C/[C@H]1OC(=O)C[C@H](O)[C@H]1F [Example 38] : 6.60
2) CCCCc1cc(Cl)cc(Cl)c1/C=C/[C@H]1OC(=O)C[C@H](O)[C@H]1F [Example 18] : 6.49
3) O=C1C[C@H](O)[C@@H](F)[C@@H](CSc2c(Cl)cc(Cl)cc2C(c2ccc(F)cc2)c2ccc(F)cc2)O1 [Example 12] : 5.26
4) CC(C)c1nc(-c2ccccc2)cc(-c2ccc(F)cc2)c1/C=C/[C@H]1OC(=O)C[C@H](O)[C@H]1F [Example 34] : 6.96

====

# target_desc: HMG-CoA reductase (Rattus norvegicus, UniProt P51639)
# Sequence (P51639 1-887): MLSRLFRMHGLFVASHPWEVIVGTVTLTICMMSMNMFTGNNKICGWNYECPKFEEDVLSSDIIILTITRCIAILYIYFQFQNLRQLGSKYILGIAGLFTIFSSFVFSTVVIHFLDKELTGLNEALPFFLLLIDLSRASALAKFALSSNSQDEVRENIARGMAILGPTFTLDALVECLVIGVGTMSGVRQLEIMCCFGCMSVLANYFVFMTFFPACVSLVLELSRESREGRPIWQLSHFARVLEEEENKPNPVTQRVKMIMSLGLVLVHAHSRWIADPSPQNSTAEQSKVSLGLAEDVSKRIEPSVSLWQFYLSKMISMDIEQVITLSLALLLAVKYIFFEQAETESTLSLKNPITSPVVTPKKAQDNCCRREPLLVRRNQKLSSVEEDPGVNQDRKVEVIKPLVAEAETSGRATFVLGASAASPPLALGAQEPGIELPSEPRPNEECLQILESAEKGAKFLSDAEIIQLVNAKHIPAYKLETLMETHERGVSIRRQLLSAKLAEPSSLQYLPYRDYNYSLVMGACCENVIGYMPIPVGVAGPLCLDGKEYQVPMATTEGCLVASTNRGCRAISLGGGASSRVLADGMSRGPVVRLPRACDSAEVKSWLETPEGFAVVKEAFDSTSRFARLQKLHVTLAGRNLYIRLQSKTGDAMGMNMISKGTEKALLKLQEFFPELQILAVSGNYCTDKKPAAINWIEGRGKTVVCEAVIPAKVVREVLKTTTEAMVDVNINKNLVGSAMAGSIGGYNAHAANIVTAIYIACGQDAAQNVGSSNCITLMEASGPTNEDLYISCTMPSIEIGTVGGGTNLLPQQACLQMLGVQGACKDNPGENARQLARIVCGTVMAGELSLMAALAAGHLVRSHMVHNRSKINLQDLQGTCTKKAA
readout_name: IC50 (nM)

1) CC(C)c1nc(-c2ccccc2)nc(-c2ccc(F)cc2)c1/C=C/[C@@H](O)[C@H](F)[C@@H](O)CC(=O)O : 36
2) CC(C)c1nc(-c2ccccc2)cc(-c2ccc(F)cc2)c1/C=C/[C@@H](O)[C@H](F)[C@@H](O)CC(=O)O : 8.5
3) CC(C)c1cc(-c2ccccc2)cc(-c2ccc(F)cc2)c1/C=C/[C@@H](O)[C@H](F)[C@@H](O)CC(=O)O : 6.3
4) CCCCc1cc(Cl)cc(Cl)c1/C=C/[C@H]1OC(=O)C[C@H](O)[C@H]1F [Example 18] : 32
5) CC(C)c1nc(-c2ccccc2)cc(-c2ccc(F)cc2)c1CC[C@@H](O)[C@@H](F)[C@@H](O)CC(=O)O : 20
